# Target desc: T1, Human TNFa N-his trimers (His-tagged TNF, produced at ESBATech) (human, UniProt P01375 77-233)
# T1 construct: Captured as trimers on a Ni-NTA sensor chip by the N-terminal His tags in the Biacore assay of the general methods; also called human TNFα; human TNF alpha; not shown: N-terminal His tag
# T1 sequence (P01375 77-233 limits assumed): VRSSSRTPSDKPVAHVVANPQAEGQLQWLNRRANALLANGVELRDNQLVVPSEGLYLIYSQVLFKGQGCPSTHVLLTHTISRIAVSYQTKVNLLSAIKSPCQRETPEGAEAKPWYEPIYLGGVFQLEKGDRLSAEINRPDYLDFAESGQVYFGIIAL
# Experimental protocol: SPR (BIAcore), His-tagged human TNF captured on NTA chip, scFv as analyte; units taken from paragraph 184
Reported endpoint: koff (s⁻¹)
The reply should contain only the number, in s⁻¹.

Record excerpt, results attached:
EP43_max (scFv, scFv NH2-VL-(GGGGS)4-VH-COOH; also called 676) scFv: EIVMTQSPSTLSASVGDRVIIKCQASQSISDWLAWYQQKPGKAPKLLIYGASRLASGFPSRFSGSGSGAEFTLTISGLEPADFATYYCQQGWSDSYVDNLFGQGTKLTVLGGGGGSGGGGSGGGGSGGGGSEVQLVESGGGLVQPGGSLRLSCTVSGFSLSSGAMSWVRQAPGKGLEWVGVIISSGATYYASWAKGRFTISKDTSKNTVYLQMNSLRAEDTAVYYCARGGPDDSNSMGTFDPWGQGTLVTVSS	5.68e-05
EP43_minmax (scFv, Min graft VL with max graft VH; also called 958) scFv: EIVMTQSPSTLSASVGDRVIITCQASQSISDWLAWYQQKPGKAPKLLIYGASRLASGVPSRFSGSGSGAEFTLTISSLQPDDFATYYCQQGWSDSYVDNLFGQGTKLTVLGGGGGSGGGGSGGGGSGGGGSEVQLVESGGGLVQPGGSLRLSCTVSGFSLSSGAMSWVRQAPGKGLEWVGVIISSGATYYASWAKGRFTISKDTSKNTVYLQMNSLRAEDTAVYYCARGGPDDSNSMGTFDPWGQGTLVTVSS	0.000198
EP43_maxmin (scFv, also called 959) scFv: EIVMTQSPSTLSASVGDRVIIKCQASQSISDWLAWYQQKPGKAPKLLIYGASRLASGFPSRFSGSGSGAEFTLTISGLEPADFATYYCQQGWSDSYVDNLFGQGTKLTVLGGGGGSGGGGSGGGGSGGGGSEVQLVESGGGLVQPGGSLRLSCAASGFSLSSGAMSWVRQAPGKGLEWVSVIISSGATYYASWAKGRFTISRDNSKNTLYLQMNSLRAEDTAVYYCAKGGPDDSNSMGTFDPWGQGTLVTVSS	0.00533

Field: next binder
Q: # return recorded koff for entry EP43_maxDHP (scFv) scFv: EIVMTQSPSTLSASVGDRVIIKCQASQSISDWLAWYQQKPGKAPKLLIYGASRLASGFPSRFSGSGSGAEFTLTISGLEPADFATYYCQQGWSDSYVDNLFGQGTKLTVLGGGGGSGGGGSGGGGSGGGGSEVQLVESGGGSVQPGGSLRLSCTVSGFSLSSGAMSWVRQAPGKGLEWVGVIISSGATYYASWAKGRFTISKDTSKNTVYLQMNSLRAEDTATYYCARGGPDDSNSMGTFDPWGQGTSVTVSS
A: 2.73e-05
